Target: T1, human MICA allele MICA*007 (human, UniProt Q29983 24-297)
T1 construct: Expressed on transfected C1R cells; also called MICA*07; C1R-MICA*007
T1 chain: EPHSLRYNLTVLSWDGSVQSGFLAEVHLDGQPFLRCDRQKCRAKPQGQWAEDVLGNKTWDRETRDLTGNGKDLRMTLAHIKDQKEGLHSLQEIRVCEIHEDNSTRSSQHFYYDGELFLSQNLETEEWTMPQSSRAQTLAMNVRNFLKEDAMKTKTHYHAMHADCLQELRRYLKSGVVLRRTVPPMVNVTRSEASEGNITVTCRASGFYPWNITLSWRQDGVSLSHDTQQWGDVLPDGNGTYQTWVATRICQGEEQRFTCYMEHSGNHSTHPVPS
Experiment: flow cytometry, C1R-MICA*007 transfectant cells
Below is a list of entries, each paired with its recorded EC50 value.

binder | EC50, µg/mL
mAb8 (antibody, V domains shown, Produced in CHO cells as human IgG1 with huCk constant domain) VH: QVQLQESGPGLVKPSETLSLTCTVSGYSITSDYAWNWIRQPPGKGLEWMGFVSYSGTTKYNPSLKSRVTISRDTSENQFSLKLSSVTAADTAVYYCARGYGFDYWGQGTTVTVSS VL: EIVLTQSPATLSLSPGERATLSCSATSSISSIYFHWYQQKPGQAPRLLIYRTSNLASGIPARFSGSGSGTSYTLTISSLEPEDFAVYYCQQGTTIPFTFGQGTKLEIK | 0.0462
mAb10 (antibody, V domains shown, Produced in CHO cells as human IgG1 with huCk constant domain) VH: QVQLQESGPGLVKPSETLSLTCTVSGYSITSDYAWNWIRQPPGKGLEWMGFVSYSGTTKYNPSLKSRITISRDTSENQFSLKLSSVTAADTAVYYCARGYGFDYWGQGTTVTVSS VL: EIVLTQSPATLSLSPGERATLSCSATSSISSIYFHWYQQKPGQAPRLLIYRTSNLASGIPARFSGSGSGTDYTLTISSLEPEDFAVYYCQQGTTIPFTFGQGTKLEIK | 0.0498
mAb7 (antibody, V domains shown, Produced in CHO cells as human IgG1 with huCk constant domain) VH: QVQLQESGPGLVKPSETLSLTCTVSGYSITSDYAWNWIRQPPGKGLEWMGFVSYSGTTKYNPSLKSRVTISRDTSENQFSLKLSSVTAADTAVYYCARGYGFDYWGQGTTVTVSS VL: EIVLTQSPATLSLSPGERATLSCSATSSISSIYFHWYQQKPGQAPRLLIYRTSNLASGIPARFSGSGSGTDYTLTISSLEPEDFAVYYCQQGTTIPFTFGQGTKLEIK | 0.0668
mAb11 (antibody, V domains shown, Produced in CHO cells as human IgG1 with huCk constant domain) VH: QVQLQESGPGLVKPSETLSLTCTVSGYSITSDYAWNWIRQPPGKGLEWMGFVSYSGTTKYNPSLKSRITISRDTSENQFSLKLSSVTAADTAVYYCARGYGFDYWGQGTTVTVSS VL: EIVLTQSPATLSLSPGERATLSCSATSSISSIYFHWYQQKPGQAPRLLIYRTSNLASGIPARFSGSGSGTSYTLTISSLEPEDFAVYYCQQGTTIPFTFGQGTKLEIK | 0.0513
mAb9 (antibody, V domains shown, Produced in CHO cells as human IgG1 with huCk constant domain) VH: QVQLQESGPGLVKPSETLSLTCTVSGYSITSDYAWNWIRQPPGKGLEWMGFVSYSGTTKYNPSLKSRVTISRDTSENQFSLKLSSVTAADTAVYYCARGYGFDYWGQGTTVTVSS VL: EIVLTQSPATLSLSPGERATLSCSATSSISSIYFHWYQQKPGQAPRLLIYRTSNLASGIPARFSGSGSGTDYTLTISSLEPEDVAVYYCQQGTTIPFTFGQGTKLEIK | 0.0519

Each recorded value in this set is attributed to patent US20170267764A1.
